Reference source: ChEMBL document CHEMBL6177967

System: RAW264.7
Assay: Cytotoxicity against mouse RAW264.7 cells assessed as inhibition of cell growth at 2 uM incubated for 24 hrs by MTT assay
Assay type: toxicity, cell-based
Conditions: raw264.7, 24 h
metric: Activity

Recorded results for 8 compounds are shown here.
CN1C(=O)c2nc3ccccc3c(=O)n2[C@H](Cc2ccccc2OCc2ccccc2Cl)C1=O :: Non-toxic
O=C1c2nc3ccccc3c(=O)n2[C@H](Cc2ccccc2O)C(=O)N1Cc1cccc(Br)c1 :: Non-toxic
O=C1c2nc3ccccc3c(=O)n2[C@H](Cc2ccccc2O)C(=O)N1Cc1ccccc1Cl :: Non-toxic
O=C1c2nc3ccccc3c(=O)n2[C@H](Cc2ccccc2O)C(=O)N1Cc1cccc(F)c1 :: Non-toxic
C=CCOc1ccccc1C[C@H]1C(=O)N(C)C(=O)c2nc3ccccc3c(=O)n21 :: Non-toxic
O=C1c2nc3ccccc3c(=O)n2[C@@H](Cc2ccccc2O)C(=O)N1Cc1cccc(Br)c1 :: Non-toxic
CN1C(=O)c2nc3ccccc3c(=O)n2[C@@H](Cc2ccccc2OCc2ccccc2Cl)C1=O :: Non-toxic
CN1C(=O)c2nc3ccccc3c(=O)n2[C@H](Cc2ccccc2OCC#N)C1=O :: Non-toxic

In one line, give reported Activity of the entry O=C1c2nc3ccccc3c(=O)n2[C@@H](Cc2ccccc2O)C(=O)N1Cc1cccc(F)c1 .
Non-toxic

In one line, give reported Activity of the entry C=CCOc1ccccc1C[C@@H]1C(=O)N(C)C(=O)c2nc3ccccc3c(=O)n21 .
Non-toxic

In one line, give reported Activity of the entry O=C1c2nc3ccccc3c(=O)n2[C@@H](Cc2ccccc2O)C(=O)N1Cc1ccccc1Cl .
Non-toxic

In one line, give reported Activity of the entry CN1C(=O)c2nc3ccccc3c(=O)n2[C@@H](Cc2ccccc2OCC#N)C1=O .
Non-toxic

* * *

Tested on: RAW264.7
Assay: Anti-inflammatory activity in LPS-induced mouse RAW264.7 cells assessed as inhibition of IL-1beta level at 2 uM incubated for 24 hrs by ELISA relative to control
Assay type: functional
So basically: inhibition at 2 µM at 60% or higher? That is true (1). Lower than 60%? That is false (0).

Some solved cases for reference:
C=CCOc1ccccc1C[C@@H]1C(=O)N(C)C(=O)c2nc3ccccc3c(=O)n21 :: false (0)
O=C1c2nc3ccccc3c(=O)n2[C@H](Cc2ccccc2O)C(=O)N1Cc1cccc(Br)c1 :: false (0)
O=C1NC(=O)C(Cc2ccccc2O)n2c1nc1ccccc1c2=O (racemic) :: false (0)

Dear colleague, could you confirm whether O=C1c2nc3ccccc3c(=O)n2[C@H](Cc2ccccc2O)C(=O)N1Cc1cccc(F)c1 has inhibition at 2 µM at or above 60%?
false (0)

Dear colleague, could you confirm whether CN1C(=O)c2nc3ccccc3c(=O)n2[C@@H](Cc2ccccc2OCC#N)C1=O has inhibition at 2 µM at or above 60%?
false (0)

Dear colleague, could you confirm whether C=CCOc1ccccc1C[C@H]1C(=O)N(C)C(=O)c2nc3ccccc3c(=O)n21 has inhibition at 2 µM at or above 60%?
true (1)

Dear colleague, could you confirm whether CN1C(=O)c2nc3ccccc3c(=O)n2[C@H](Cc2ccccc2OCC#N)C1=O has inhibition at 2 µM at or above 60%?
true (1)

Dear colleague, could you confirm whether O=C1c2nc3ccccc3c(=O)n2[C@H](Cc2ccccc2O)C(=O)N1Cc1ccccc1Cl has inhibition at 2 µM at or above 60%?
false (0)

Dear colleague, could you confirm whether CN1C(=O)c2nc3ccccc3c(=O)n2[C@@H](Cc2ccccc2OCc2ccccc2Cl)C1=O has inhibition at 2 µM at or above 60%?
true (1)

* * *

Test system: RAW264.7
Test: Cytotoxicity against mouse RAW264.7 cells assessed as inhibition of cell growth at 50 uM incubated for 24 hrs by MTT assay
Format: toxicity, cell-based
Details: raw264.7, 24 h
metric: Activity

Recorded results for 5 compounds are shown here.
O=C1c2nc3ccccc3c(=O)n2C(Cc2ccccc2O)C(=O)N1Cc1ccccc1Cl (racemic) :: Non-toxic
C=CCOc1ccccc1CC1C(=O)N(C)C(=O)c2nc3ccccc3c(=O)n21 (racemic) :: Toxic
CN1C(=O)C(Cc2ccccc2O)n2c(nc3ccccc3c2=O)C1(O)c1ccccc1 (racemic) :: Non-toxic
COCOc1ccccc1CC1C(=O)N(Cc2cccc(C(F)(F)F)c2)C(=O)c2nc3ccccc3c(=O)n21 (racemic) :: Toxic
O=C1c2nc3ccccc3c(=O)n2C(Cc2ccccc2O)C(=O)N1Cc1ccc(Cl)cc1 (racemic) :: Non-toxic

In one line, give reported Activity of the entry CN1C(=O)c2nc3ccccc3c(=O)n2C(Cc2ccccc2OCC#N)C1=O (racemic) .
Non-toxic

In one line, give reported Activity of the entry Cc1ccc(CN2C(=O)c3nc4ccccc4c(=O)n3C(Cc3ccccc3O)C2=O)cc1 (racemic) .
Non-toxic
